In this section, each of the molecules is paired with its reported growth.
Test system: IGROV1 ovarian
Assay: NCI-60 one-dose screen, 48 h (100 = growth as untreated, 0 = no growth, -100 = all killed)
Details: 10 µM unless noted
This is part of a sample that, as a whole, favours compounds with a hit. Of some 83,000 tested, about 20% had one in any assay.
parameter: growth (%)

1. CCOc1nc(-c2ccccc2)cc2c(O)c(C(=O)n3nc(C)cc3C)[nH]c(=O)c12: 97.4
2. O=C(CCc1nnc(SCc2ccccc2)s1)c1nc2ccccc2[nH]1: 103
3. COc1ccc2c(c1)nc(N)c1c3cc(C)c(C)cc3cn21: 77.2
4. Nc1ccc2c(c1)/C(=N/O)c1cc([N+](=O)[O-])ccc1-2: 57
5. O=C(/C=C/c1cc2ccccc2[nH]c1=O)c1ccc(Cl)cc1: 26.4
6. CCC(CC)NCCCCCNc1cc(OC)cc2cccnc12: 111
7. COc1cc(/C=C/c2nnc(-c3cc(-c4ccccc4)n[nH]3)o2)cc(OC)c1OC: 110
8. COC1=CC(c2ccc[nH]2)=N/C1=C\c1[nH]c(C)c(C(=O)CCC(=O)Oc2ccc3c(c2)CCC2C3CC[C@]3(C)C(=O)CC[C@@H]23)c1C (stereo not given in full): 79.5
9. CCCCCCCC/C=C\CCCCCCCCOc1ccccc1CC(=O)NCC[N+]1(C)CCCC1: 10.9
10. CC(NC(=O)C(C)Oc1ccc(Cl)cc1Cl)C(=O)O (stereo not given): 84.8

* * *

Tested on: OVCAR-4 ovarian
Experiment: NCI-60 one-dose screen, 48 h
Conditions: 10 µM unless noted
Compounds without any hit were thinned out: in the full panel of roughly 83,000, 20% have a hit. Calls of active or inactive are those of the source. The calls were made as follows: active = growth percent below 10; inactive = the rest.
Classes used: YES = active, NO = inactive

1. COc1ccc2c(c1)C(=O)c1c-2c(=O)n(CCCCCCC(=O)NO)c2ccccc12: YES
2. CN(CC(=O)Nc1nc2ccccc2[nH]1)S(=O)(=O)c1ccc(Cl)cc1: NO
3. CN(C)c1ccc2c(c1)/C(=N/O)c1ccccc1-2: NO
4. COc1ccc(-c2cc(C(=O)Nc3nc4cc(C)c(C)cc4s3)nc3cc(-c4ccccc4)nn23)cc1OC: NO
5. O=c1[nH]c(Cl)nc2c1cnn2-c1ccccc1: NO
6. Cc1cc(C(C)(C)C)cc(C)c1CC1=NCCN1: NO
7. COc1ccc2nc3cc(Cl)ccc3c(Nc3cc(C(C)C)c(O)cc3C)c2c1: NO
8. Oc1ccccc1/C=N\Nc1ccccc1: NO
9. O=C(COC(=O)[C@H](C[Se][Se]C[C@H](NC(=O)c1ccc(Br)cc1F)C(=O)OCC(=O)c1ccc(F)cc1)NC(=O)c1ccc(Br)cc1F)c1ccc(F)cc1: YES
10. O=c1ccn(C2CCCO2)c(=O)[nH]1 (configuration not stated): NO
11. COc1ccc(/C=C(\C#N)c2ccccc2)cc1: NO
12. CC(=O)NC1(C(=O)O)CCCC1: NO
13. Clc1ccc2c(Nc3ccc4oc(NCCN5CCCC5)nc4c3)ccnc2c1: NO
14. CO[C@H]1CC(O[C@@H]2/C(C)=C/C[C@@H]3C[C@@H](C[C@]4(CC[C@H](C)[C@@H](C5CCCCC5)O4)O3)OC(=O)[C@@H]3C=C(C)/C(=N/O)[C@H]4OC/C(=C\C=C\[C@@H]2C)[C@]43O)O[C@@H](C)C1O (some centres not stated): YES
15. CCCCCCC/C(=N\N=C(N)N)c1ccc(O)cc1: NO
16. COc1cc(-c2cc(C(=O)Nc3nc4ccccc4s3)nc3cc(-c4ccccc4)nn23)cc(OC)c1OC: NO
17. C[C@]12CC[C@@H]3c4ccc(O)c([N+](=O)[O-])c4CC[C@H]3[C@@H]1CC[C@@H]2NS(=O)(=O)c1ccc(C(F)(F)F)cc1: NO
18. O=C(Cn1ccnc1)NC(c1ccccc1)c1ccccc1: NO
19. O=C(CCc1nnc2sc(-c3ccc(Cl)cc3Cl)nn12)c1nc2ccccc2[nH]1: YES
20. O=C1NCC(Nc2ccc(Br)cc2Cl)C(=O)N1 (configuration not stated): NO
21. CN1CCCC1c1cccnc1 (configuration not stated): NO
22. CN=C(NC)N/N=C(C)\C=N\NC(=NC)NC: NO
23. c1ccc2c(c1)[nH]c1c2cc[n+]2cc3c(cc12)CCCC3: NO
24. CCCCn1c(Cc2ccc(Cl)cc2)nc2cc(OC)c(OC)cc2c1=O: NO
25. Nc1nc2ncc(CCNc3ccc(C(=O)NC(CCC(=O)O)C(=O)O)cc3)nc2c(=O)[nH]1 (configuration not stated): NO
26. COc1ccc(/C=C2\NC(=S)NC2=O)cc1: NO
27. CN(C)CCCN1c2nc3ccccc3cc2Sc2cc3ccccc3nc21: NO
28. COc1cc(/C=C2\COc3ccc(O)cc3C2=O)cc(OC)c1: NO
29. CCOc1cc(-c2ccc[nH]2)[nH]c1/C=C1\N=C(C)C(C(=O)OC)=C1C: YES
30. O=C1OCC/C1=C\OCCCO/C=C1\CCOC1=O: NO
31. COc1cc([C@@H]2c3cc4c(cc3C(O[C@@H]3O[C@@H]5CO[C@@H](c6cccs6)OC5[C@H](O)[C@H]3O)C3COC(=O)[C@@H]32)OCO4)cc(OC)c1O (some centres not stated): NO
32. N#CCNc1ccccc1N: NO
33. CCCCOc1ccc(C(C)(C)c2ccc(OCCCC)cc2)cc1: NO
34. Clc1ccc2nc(Cl)c3ccccc3c2c1: YES
35. CC[C@H](C)C(=O)O[C@H]1C[C@@H](C)C=C2C=C[C@H](C)[C@H](CC[C@@H]3C[C@@H](O)CC(=O)O3)[C@H]21: NO
36. CCC1=C(c2ccc(OC)cc2)C(C)(C)Oc2cc(O)c(CN3CCCC3)cc21: NO
37. COc1ccc2c(c1)[nH]c(=O)c1c3cc(OC)c(OC)cc3cn21: NO
38. O=C1C(=O)c2ccc(Br)cc2-c2cc(Br)ccc21: YES
39. COc1ccc(-c2c3c(nn2-c2ccc(N)cc2)CCc2cnoc2-3)cc1OC: NO
40. COc1cc(/C=C/C(=O)c2c(-c3ccc(F)cc3)nc3sc(C)nn23)cc(OC)c1OC: NO
41. OC(c1cc(C(F)(F)F)nc2c(C(F)(F)F)cccc12)C1CCCCN1 (configuration not stated): NO
42. COc1ccc(C2=NNC(c3cc(Cc4ccc(O)c(C5CC(c6ccc(OC)cc6)=NN5)c4)ccc3O)C2)cc1 (configuration not stated): NO

Just for reference, PubChem BioAssay (NCI) is where these values come from.
